Entry source: PubChem BioAssay (EPA / NIEHS)

- TEST METHOD NOTES: BSK_LPS_SRB: Viability Assessment in the BioMAP Diversity Plus: LPS Assay (AID 2283079);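 note: total protein by sulforhodamine B absorbance as a cytotoxicity measure; measured one day after compound addition; fitted in both directions against DMSO so loss or gain of signal counts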
- TEST CONDITIONS: primary human HUVEC with PBMC
The source made the active and inactive calls. Rule for the calls: active = hit-call score of the fitted dose curve at least 0.9, where 1 is the maximum; inactive = score below 0.9.
Outcomes: active, inactive

- COMPOUND: "COc1ccc2nc(N)sc2c1"
  ASSIGNED CLASS: "inactive"
- COMPOUND: "O=C(Cl)c1cc(C(=O)Cl)cc(C(=O)Cl)c1"
  ASSIGNED CLASS: "active"
- COMPOUND: "S=C(NC1CCCCC1)NC1CCCCC1"
  ASSIGNED CLASS: "inactive"
- COMPOUND: "CN1C(=O)N(C)C(O)C1O (stereo not given)"
  ASSIGNED CLASS: "inactive"
- COMPOUND: "C/C=C\\C/C=C/CCCCCCCCOC(C)=O"
  ASSIGNED CLASS: "inactive"
- COMPOUND: "C=C[Si](OC(C)=O)(OC(C)=O)OC(C)=O"
  ASSIGNED CLASS: "inactive"
- COMPOUND: "C=CC(=O)OCC(Br)CBr (stereo not given)"
  ASSIGNED CLASS: "active"
- COMPOUND: "N#[N+]c1ccc2c(S(=O)(=O)[O-])cccc2c1O"
  ASSIGNED CLASS: "inactive"
- COMPOUND: "CCCCNc1ccc(NCCCC)c2c1C(=O)c1ccccc1C2=O"
  ASSIGNED CLASS: "inactive"
- COMPOUND: "C=CC=CC=CCCCCC"
  ASSIGNED CLASS: "inactive"
- COMPOUND: "CCOc1nc(F)cc2nc(S(=O)(=O)Nc3c(Cl)cccc3C(=O)OC)nn12"
  ASSIGNED CLASS: "inactive"
- COMPOUND: "COCc1c(C(C)C)nc(C(C)C)c(/C=C/[C@@H](O)C[C@@H](O)CC(=O)O)c1-c1ccc(F)cc1"
  ASSIGNED CLASS: "active"
- COMPOUND: "O=C1CCCN1CCO"
  ASSIGNED CLASS: "inactive"
- COMPOUND: "CCO[Si](C)(OCC)OCC"
  ASSIGNED CLASS: "inactive"
- COMPOUND: "CCCCC(CC)COCC1CO1 (stereo not given)"
  ASSIGNED CLASS: "inactive"
